Consider the following compounds and their measured IC50 readings.
# System: A431 (Human epidermal carcinoma, EGFR high expression)
# test-details: Cell proliferation by MTT, A431
# Format: cell-based
# setup-conditions: A-431, read-out: A431 50% inhibitory concentration (IC50), 72 h
Just the number in µM, nothing appended.

- chemical-string: "C=CC(=O)Nc1cccc(N2C(=O)N(C)Cc3cnc(Nc4ccc(N5CCOCC5)cc4OC)nc32)c1"
  unit-abbreviation: "µM"
  IC50: 21.2

State its IC50 on A431 (Human epidermal carcinoma, EGFR high expression): C=CC(=O)Nc1cccc(N2C(=O)N(C(C)C)Cc3cnc(Nc4ccc(N5CCN(C)CC5)cc4OC)nc32)c1
24.7

Also need C=CC(=O)Nc1cccc(N2C(=O)N(C)Cc3cnc(Nc4ccc(N5CCSCC5)cc4OC)nc32)c1 , thanks.
10.7

Also need C=CC(=O)Nc1cccc(N2C(=O)N(C)Cc3cnc(Nc4ccc(N5CCN(C)CC5)cc4C)nc32)c1 , thanks.
1.45

###

Consider the following compounds and their measured pIC50 readings.
# Test system: A431 (Human epidermal carcinoma, EGFR high expression)
# test-details: Cell proliferation by MTT, A431
# Format: cell-based
# setup-conditions: A-431, read-out: A431 50% inhibitory concentration (IC50), 72 h
Please keep in mind that pIC50 is minus log10 of the molar concentration; only the number is needed.

- chemical-string: "C=CC(=O)Nc1cccc(N2C(=O)N(C)Cc3cnc(Nc4ccc(N5CCCCC5)cc4)nc32)c1"
  reported-measurement: 5.10
- chemical-string: "C=CC(=O)Nc1cccc(N2C(=O)N(C)Cc3cnc(Nc4ccc(OCCN5CCOCC5)cc4OC)nc32)c1"
  reported-measurement: 4.52

Query (compound): C=CC(=O)Nc1cccc(N2C(=O)N(C)Cc3cnc(Nc4ccc(N5CCC(N6CCN(C)CC6)CC5)cc4)nc32)c1 ; field requested: pIC50
5.46

Also need C=CC(=O)Nc1cccc(N2C(=O)N(C)Cc3cnc(Nc4ccc(N5CCCN(C)CC5)cc4OC)nc32)c1 , thanks.
4.95

Also need C=CC(=O)Nc1cccc(N2C(=O)N(C)Cc3cnc(Nc4ccc(N5CCN(C)CC5)cc4OC)nc32)c1 , thanks.
5.53

Also need C=CC(=O)Nc1cccc(N2C(=O)N(C)Cc3cnc(Nc4ccc(N5CCOCC5)cc4)nc32)c1 , thanks.
5.46

Also need C=CC(=O)Nc1cccc(N2C(=O)N(C)Cc3cnc(Nc4ccc(N(C)C)cc4OC)nc32)c1 , thanks.
4.55

Also need C=CC(=O)Nc1cccc(N2C(=O)N(C)Cc3cnc(Nc4ccc(N5CCN(C)CC5)cc4OC(C)C)nc32)c1 , thanks.
4.20

Also need C=CC(=O)Nc1cccc(N2C(=O)N(C)Cc3cnc(Nc4ccc(N5CCCCC5)cc4OC)nc32)c1 , thanks.
4.75

Also need C=CC(=O)Nc1cccc(N2C(=O)N(C)Cc3cnc(Nc4ccc(N5CCSCC5)cc4)nc32)c1 , thanks.
4.79

###

# target-entity: EGFRL858R + T790M (Homo sapiens, UniProt P00533, L858R/T790M)
# Sequence (P00533 25-1210 T790M/L858R): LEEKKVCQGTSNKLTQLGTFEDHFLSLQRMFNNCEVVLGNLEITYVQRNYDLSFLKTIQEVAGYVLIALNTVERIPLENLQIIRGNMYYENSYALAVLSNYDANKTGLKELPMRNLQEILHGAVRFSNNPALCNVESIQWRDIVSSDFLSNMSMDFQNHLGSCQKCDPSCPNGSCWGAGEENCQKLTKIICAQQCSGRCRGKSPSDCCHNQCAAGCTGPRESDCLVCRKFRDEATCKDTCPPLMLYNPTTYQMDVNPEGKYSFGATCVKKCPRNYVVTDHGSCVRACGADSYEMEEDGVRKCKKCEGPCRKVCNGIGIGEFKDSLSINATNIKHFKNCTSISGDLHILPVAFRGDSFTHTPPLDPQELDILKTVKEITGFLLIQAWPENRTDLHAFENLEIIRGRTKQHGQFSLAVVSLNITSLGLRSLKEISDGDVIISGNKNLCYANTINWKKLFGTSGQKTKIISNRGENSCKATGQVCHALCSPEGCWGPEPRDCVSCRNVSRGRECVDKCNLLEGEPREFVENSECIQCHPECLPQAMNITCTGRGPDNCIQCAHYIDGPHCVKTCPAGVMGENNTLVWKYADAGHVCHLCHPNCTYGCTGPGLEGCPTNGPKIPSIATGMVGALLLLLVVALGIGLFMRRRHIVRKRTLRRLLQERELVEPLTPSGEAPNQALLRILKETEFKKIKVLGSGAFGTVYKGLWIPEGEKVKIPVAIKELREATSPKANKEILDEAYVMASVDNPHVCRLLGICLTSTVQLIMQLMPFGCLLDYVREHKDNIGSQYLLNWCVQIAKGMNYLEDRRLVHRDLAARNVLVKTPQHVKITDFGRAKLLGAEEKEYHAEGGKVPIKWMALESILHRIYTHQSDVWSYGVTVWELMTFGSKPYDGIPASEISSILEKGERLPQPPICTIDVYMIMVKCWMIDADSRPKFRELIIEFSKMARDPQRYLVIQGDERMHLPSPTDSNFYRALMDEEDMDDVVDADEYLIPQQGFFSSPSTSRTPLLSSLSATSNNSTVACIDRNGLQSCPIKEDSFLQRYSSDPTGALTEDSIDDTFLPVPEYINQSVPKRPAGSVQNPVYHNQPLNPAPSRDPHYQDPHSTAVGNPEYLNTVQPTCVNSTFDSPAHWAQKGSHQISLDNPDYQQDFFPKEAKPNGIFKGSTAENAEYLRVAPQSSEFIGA
# test-details: In vitro enzymatic activity assay (Z'-LYTE), EGFR L858R + T790M
# setup-conditions: Z'-LYTE FRET peptide assay; read-out: EGFRL858R + T790M kinase activity (IC50)
quantity-kind: IC50

Solved entries:
- compound: "C=CS(=O)(=O)Nc1cccc(N2C(=O)N(C)Cc3cnc(Nc4ccc(N5CCN(C)CC5)cc4OC)nc32)c1 [C-EGF40]"
  target-entity: "EGFRL858R + T790M (Homo sapiens, UniProt P00533, L858R/T790M)"
  quantity-kind: "IC50"
  reported-measurement: "10 to 100 nM"
- compound: "C=CC(=O)Nc1cccc(N2C(=O)N(C)Cc3cnc(Nc4ccc(N5CCC(N6CCN(C)CC6)CC5)cc4OC)nc32)c1 [C-EGF14]"
  target-entity: "EGFRL858R + T790M (Homo sapiens, UniProt P00533, L858R/T790M)"
  quantity-kind: "IC50"
  reported-measurement: "10 to 100 nM"

State its IC50 on EGFRL858R + T790M (Homo sapiens, UniProt P00533, L858R/T790M): C=CC(=O)Nc1cccc(N2C(=O)N(c3ccc(-c4ccccc4)cc3)Cc3cnc(Nc4ccc(N5CCN(C)CC5)cc4OC)nc32)c1 [C-EGF30]
≤ 10 nM

Also need C=CC(=O)Nc1cccc(N2C(=O)N(C)Cc3cnc(Nc4ccc(N5CCN(C)CC5)cc4C)nc32)c1 [Compound X010] , thanks.
≤ 10 nM

Also need C=CC(=O)Nc1cccc(N2C(=O)N(c3ccc(OCc4ccccc4)cc3)Cc3cnc(Nc4ccc(N5CCN(C)CC5)cc4OC)nc32)c1 [C-EGF32] , thanks.
≤ 10 nM

Also need C=CC(=O)Nc1cccc(N2C(=O)N(C)Cc3cnc(Nc4ccc(OCCN5CCOCC5)cc4OC)nc32)c1 [Compound X008] , thanks.
≤ 10 nM

###

Consider the following compounds and their measured pIC50 readings.
# target-entity: EGFR T790M kinase (Homo sapiens, UniProt P00533, T790M)
# Sequence (P00533 25-1210 T790M): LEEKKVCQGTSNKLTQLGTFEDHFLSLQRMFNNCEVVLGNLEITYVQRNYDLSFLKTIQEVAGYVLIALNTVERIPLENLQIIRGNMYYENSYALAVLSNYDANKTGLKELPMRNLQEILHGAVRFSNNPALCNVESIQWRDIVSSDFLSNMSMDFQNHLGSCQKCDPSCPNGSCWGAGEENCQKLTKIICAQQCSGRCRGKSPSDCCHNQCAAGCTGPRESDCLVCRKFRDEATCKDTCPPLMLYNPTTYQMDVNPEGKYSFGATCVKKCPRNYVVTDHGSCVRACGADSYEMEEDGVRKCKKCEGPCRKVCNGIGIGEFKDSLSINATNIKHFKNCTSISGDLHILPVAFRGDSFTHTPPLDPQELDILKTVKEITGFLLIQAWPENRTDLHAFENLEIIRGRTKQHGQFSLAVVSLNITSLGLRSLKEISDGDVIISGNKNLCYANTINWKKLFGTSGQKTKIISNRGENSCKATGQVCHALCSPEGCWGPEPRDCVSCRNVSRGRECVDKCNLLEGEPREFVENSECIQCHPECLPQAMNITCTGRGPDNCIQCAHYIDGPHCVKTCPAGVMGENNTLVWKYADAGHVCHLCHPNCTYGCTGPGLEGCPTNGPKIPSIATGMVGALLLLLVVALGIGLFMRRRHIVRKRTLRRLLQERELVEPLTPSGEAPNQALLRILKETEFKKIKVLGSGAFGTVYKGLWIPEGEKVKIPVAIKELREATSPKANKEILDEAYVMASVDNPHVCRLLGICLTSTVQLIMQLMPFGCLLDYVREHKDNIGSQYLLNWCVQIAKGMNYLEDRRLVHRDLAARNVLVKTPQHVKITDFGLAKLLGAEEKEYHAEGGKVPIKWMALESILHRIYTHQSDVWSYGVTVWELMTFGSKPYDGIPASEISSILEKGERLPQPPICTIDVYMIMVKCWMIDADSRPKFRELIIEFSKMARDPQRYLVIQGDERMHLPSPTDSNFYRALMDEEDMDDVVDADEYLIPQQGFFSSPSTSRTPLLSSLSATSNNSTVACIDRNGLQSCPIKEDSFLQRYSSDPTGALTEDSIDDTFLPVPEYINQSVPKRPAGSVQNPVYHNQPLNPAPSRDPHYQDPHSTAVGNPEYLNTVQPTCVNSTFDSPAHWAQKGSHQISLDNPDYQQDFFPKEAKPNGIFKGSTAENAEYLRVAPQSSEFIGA
# test-details: In vitro enzymatic activity assay (Z'-LYTE), EGFR T790M
# setup-conditions: Z'-LYTE FRET peptide assay; read-out: EGFRT790M kinase activity (IC50)
pIC50: −log10 of the molar value.

- compound: "C=CC(=O)Nc1cccc(N2C(=O)N(c3ccc(Oc4ccccc4)cc3)Cc3cnc(Nc4ccc(N5CCN(C)CC5)cc4OC)nc32)c1 [C-EGF31]"
  target-entity: "EGFR T790M kinase (Homo sapiens, UniProt P00533, T790M)"
  quantity-kind: "pIC50"
  reported-measurement: "≥ 8.00"
- compound: "C=CC(=O)Nc1cccc(N2C(=O)N(C)Cc3cnc(Nc4ccc(N5CCN(C(C)=O)CC5)cc4OC)nc32)c1 [C-EGF20]"
  target-entity: "EGFR T790M kinase (Homo sapiens, UniProt P00533, T790M)"
  quantity-kind: "pIC50"
  reported-measurement: "≥ 8.00"
- compound: "C=CC(=O)Nc1cccc(N2C(=O)N(c3ccc(OC)cc3)Cc3cnc(Nc4ccc(N5CCN(C)CC5)cc4OC)nc32)c1 [C-EGF25]"
  target-entity: "EGFR T790M kinase (Homo sapiens, UniProt P00533, T790M)"
  quantity-kind: "pIC50"
  reported-measurement: "≥ 8.00"

State its pIC50 on EGFR T790M kinase (Homo sapiens, UniProt P00533, T790M): C=CC(=O)Nc1cccc(N2C(=O)N(c3cccc4ccccc34)Cc3cnc(Nc4ccc(N5CCN(C)CC5)cc4OC)nc32)c1 [C-EGF28]
≥ 8.00

Also need C=CC(=O)Nc1cccc(N2C(=O)N(c3cccc(Cl)c3)Cc3cnc(Nc4ccc(N5CCN(C)CC5)cc4OC)nc32)c1 [C-EGF35] , thanks.
≥ 8.00

Also need C=CC(=O)Nc1cccc(N2C(=O)N(C)Cc3cnc(Nc4ccc(N5CCCCC5)cc4OC)nc32)c1 [C-EGF11] , thanks.
6.00 to 7.00

Also need C=CC(=O)Nc1cccc(N2C(=O)N(C)Cc3cnc(Nc4ccc(N5CCCC5)cc4OC)nc32)c1 [C-EGF12] , thanks.
6.00 to 7.00

Also need C=CC(=O)Nc1cccc(N2C(=O)N(c3ccc(OCc4ccccc4)cc3)Cc3cnc(Nc4ccc(N5CCN(C)CC5)cc4OC)nc32)c1 [C-EGF32] , thanks.
≥ 8.00

###

# target-entity: EGFRL861Q (Homo sapiens, UniProt P00533, L861Q)
# Sequence (P00533 25-1210 L861Q): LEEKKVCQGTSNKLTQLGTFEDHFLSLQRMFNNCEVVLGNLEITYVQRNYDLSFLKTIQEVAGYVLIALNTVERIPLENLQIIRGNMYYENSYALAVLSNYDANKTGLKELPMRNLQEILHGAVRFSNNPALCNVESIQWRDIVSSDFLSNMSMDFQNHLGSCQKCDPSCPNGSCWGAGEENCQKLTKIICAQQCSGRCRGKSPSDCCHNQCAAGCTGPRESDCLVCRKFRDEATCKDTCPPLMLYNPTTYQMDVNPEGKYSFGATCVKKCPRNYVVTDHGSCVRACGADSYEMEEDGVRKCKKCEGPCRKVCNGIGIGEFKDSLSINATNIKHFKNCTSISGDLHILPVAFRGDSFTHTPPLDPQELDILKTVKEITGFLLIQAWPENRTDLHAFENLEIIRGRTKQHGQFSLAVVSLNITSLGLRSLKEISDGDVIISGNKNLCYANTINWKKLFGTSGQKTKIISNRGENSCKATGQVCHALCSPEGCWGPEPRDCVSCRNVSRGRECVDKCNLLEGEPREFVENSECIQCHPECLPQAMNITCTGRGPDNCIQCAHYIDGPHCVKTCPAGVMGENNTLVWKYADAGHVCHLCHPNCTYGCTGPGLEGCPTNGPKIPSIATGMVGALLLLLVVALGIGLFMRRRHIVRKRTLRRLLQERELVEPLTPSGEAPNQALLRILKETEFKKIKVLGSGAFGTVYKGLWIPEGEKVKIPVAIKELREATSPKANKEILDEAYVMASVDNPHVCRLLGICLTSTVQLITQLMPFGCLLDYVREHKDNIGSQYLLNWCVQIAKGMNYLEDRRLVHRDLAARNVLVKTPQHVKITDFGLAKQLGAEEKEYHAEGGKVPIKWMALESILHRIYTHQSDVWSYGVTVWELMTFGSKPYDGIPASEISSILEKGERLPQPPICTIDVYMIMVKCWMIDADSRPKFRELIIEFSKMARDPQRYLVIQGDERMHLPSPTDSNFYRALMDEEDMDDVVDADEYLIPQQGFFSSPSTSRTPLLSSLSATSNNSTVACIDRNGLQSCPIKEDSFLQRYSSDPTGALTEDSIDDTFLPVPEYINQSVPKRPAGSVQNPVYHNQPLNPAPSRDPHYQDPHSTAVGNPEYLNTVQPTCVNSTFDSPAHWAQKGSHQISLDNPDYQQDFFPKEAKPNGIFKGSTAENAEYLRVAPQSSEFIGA
# test-details: In vitro enzymatic activity assay (Z'-LYTE), EGFR L861Q
# Type: biochemical
# setup-conditions: Z'-LYTE FRET peptide assay; read-out: EGFRL861Q kinase activity (IC50)
pIC50: −log10 of the molar value.
quantity-kind: pIC50

Solved entries:
- compound: "C=CC(=O)Nc1cccc(N2C(=O)N(c3ccc(OCc4ccccc4)cc3)Cc3cnc(Nc4ccc(N5CCN(C)CC5)cc4OC)nc32)c1 [C-EGF32]"
  pIC50: "≥ 8.00"
- compound: "C=CC(=O)Nc1cccc(N2C(=O)N(C)Cc3cnc(Nc4ccccc4)nc32)c1 [C-EGF10]"
  pIC50: "7.00 to 8.00"
- compound: "C=CC(=O)Nc1cccc(N2C(=O)N(C)Cc3cnc(Nc4ccc(N5CCN(C)CC5)cc4)nc32)c1 [x001]"
  pIC50: "≥ 8.00"

Query (compound): C=CC(=O)Nc1cccc(N2C(=O)N(C)Cc3cnc(Nc4ccc(N5CCN(C)CC5)cc4OC)nc32)c1 [C-EGF06] ; field requested: pIC50
≥ 8.00

Also need C=CC(=O)Nc1cccc(N2C(=O)N(C)Cc3cnc(Nc4ccc(N5CCSCC5)cc4)nc32)c1 [Compound X005] , thanks.
≥ 8.00

Also need C=CS(=O)(=O)Nc1cccc(N2C(=O)N(C)Cc3cnc(Nc4ccc(N5CCN(C)CC5)cc4OC)nc32)c1 [C-EGF40] , thanks.
≥ 8.00

Also need C=CC(=O)Nc1cccc(N2C(=O)N(C)Cc3cnc(Nc4ccc(N5CCN(C)CC5)cc4F)nc32)c1 [C-EGF18] , thanks.
≤ 6.00
